All figures here come from the RNAGym collection of RNA variant scans (doi:10.1101/gad.245936.114).

B1: tRNA (parent)
chain: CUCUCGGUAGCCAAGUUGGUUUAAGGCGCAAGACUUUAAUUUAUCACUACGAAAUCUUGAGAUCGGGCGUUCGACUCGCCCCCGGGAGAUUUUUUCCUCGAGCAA

variants of: B1; assay: nonsense suppression (GFP-seq) (ratio to wild type); higher = more function; SUP4oc tRNA, yeast GFP reporter sort-seq
Fewer inactive variants are shown than the library holds.
Property name: nonsense suppression

>>> print(df.to_string())
                       var         property_name  inequality_symbol  reported_result
 0                    A13C  nonsense suppression                  =             1.13
 1               A24C U63A  nonsense suppression                  =            0.636
 2           C3G U16G G66A  nonsense suppression                  ≤            0.026
 3     A14G A24C A31G C56G  nonsense suppression                  ≤            0.026
 4               C75A G85A  nonsense suppression                  =             1.05
 5          C11A U71C A89G  nonsense suppression                  ≤            0.026
 6               G10A G78A  nonsense suppression                  =           0.0314
 7                U8A U57C  nonsense suppression                  ≤            0.026
 8                G6U U57A  nonsense suppression                  ≤            0.026
 9               C27A A62C  nonsense suppression                  =            0.349
10               A33G G66C  nonsense suppression                  =           0.0263
11      U2A G15A G66C G85U  nonsense suppression                  ≤            0.026
12      A9U G19C G65C A74C  nonsense suppression                  ≤            0.026
13               U16C G78U  nonsense suppression                  =            0.454
14     C56G U58C G66C U70C  nonsense suppression                  ≤            0.026
15      G7U U21G A23U C79G  nonsense suppression                  ≤            0.026
16  C5G G6A A33U U35G U70C  nonsense suppression                  ≤            0.026
17               U70A C83U  nonsense suppression                  =           0.0439
18          U17C U63A C72G  nonsense suppression                  ≤            0.026
19               A13G U20A  nonsense suppression                  =           0.0339
20           U8G C29G G84A  nonsense suppression                  ≤            0.026
21                    C27U  nonsense suppression                  =            0.183
22           C3A U20A G28A  nonsense suppression                  ≤            0.026
23           U8A U55G C81G  nonsense suppression                  ≤            0.026
24           C5A A30U C68A  nonsense suppression                  ≤            0.026
